Tested on: Mus musculus
Experiment: Hepatoprotective activity in CD1 Mus musculus (mouse) intoxicated with CCl4 assessed as increase in total protein level in serum at 20 mg/kg, po administered 30 min before and 3 hr after CCl4 challenge measured 48 hr post CCl4 challenge (reference value: 61.80 +/- 5.48 g/l)
Format: functional
Listed next: entries and their corresponding Activity.
measurementKind: Activity (g/L)

>>> numericvalue("COc1ccc([C@@H]2CC(=O)c3c(OC)cc(O[C@@H]4O[C@H](C)[C@@H](O)[C@H](O)[C@@H]4O)cc3O2)cc1O")
70.24
>>> numericvalue("COc1c(O)cc([C@H]2Oc3cc(O)cc(O)c3C(=O)[C@@H]2O[C@@H]2O[C@H](C)[C@@H](O)[C@H](O)[C@@H]2O[C@@H]2O[C@H](C)[C@@H](O)[C@H](O)[C@@H]2O)cc1O")
74.76
>>> numericvalue("C[C@H]1O[C@@H](Oc2cc(O)c3c(c2)O[C@H](c2cc(O)c(O)c(O)c2)CC3=O)[C@@H](O)[C@@H](O)[C@@H]1O")
76.1
>>> numericvalue("COc1cc(O)cc2c1C(=O)[C@H](O[C@@H]1O[C@H](C)[C@@H](O)[C@H](O)[C@@H]1O)[C@@H](c1cc(O)c(OC)c(O)c1)O2")
71.57
>>> numericvalue("COc1ccc(-c2oc3cc(O[C@@H]4O[C@H](CO)[C@@H](O)[C@H](O[C@@H]5O[C@@H](C)[C@H](O)[C@@H](O)[C@H]5O)[C@H]4O)c(OC)c(O)c3c(=O)c2OC)cc1")
68.23

----------
Tested on: Radical scavenging activity
Test: Antioxidant activity assessed as DPPH free radical scavenging activity
Type: functional
measurementKind: IC50 (µg/mL)

>>> numericvalue("COc1c(O)cc([C@H]2Oc3cc(O)cc(O)c3C(=O)[C@@H]2O[C@@H]2O[C@H](C)[C@@H](O)[C@H](O)[C@@H]2O[C@@H]2O[C@H](C)[C@@H](O)[C@H](O)[C@@H]2O)cc1O")
17.5
>>> numericvalue("COc1cc(O)cc2c1C(=O)[C@H](O[C@@H]1O[C@H](C)[C@@H](O)[C@H](O)[C@@H]1O)[C@@H](c1cc(O)c(OC)c(O)c1)O2")
11.6
>>> numericvalue("O=c1c(O)c(-c2ccc(O)c(O)c2)oc2cc(O)cc(O)c12 [QUERCETIN]")
8.2
>>> numericvalue("COc1ccc([C@@H]2CC(=O)c3c(OC)cc(O[C@@H]4O[C@H](C)[C@@H](O)[C@H](O)[C@@H]4O)cc3O2)cc1O")
21.4
>>> numericvalue("C[C@H]1O[C@@H](Oc2cc(O)c3c(c2)O[C@H](c2cc(O)c(O)c(O)c2)CC3=O)[C@@H](O)[C@@H](O)[C@@H]1O")
9.3
>>> numericvalue("COc1ccc(-c2oc3cc(O[C@@H]4O[C@H](CO)[C@@H](O)[C@H](O[C@@H]5O[C@@H](C)[C@H](O)[C@@H](O)[C@H]5O)[C@H]4O)c(OC)c(O)c3c(=O)c2OC)cc1")
24.8
